A collection of binders and their measured Anti-CD28 Fab signal (phage binding ELISA)
Molecular target: Anti-CD28 Fab (SEQ ID NOs: 696, 697)
Sequence (VH, as listed by the source, chain 1 of 2): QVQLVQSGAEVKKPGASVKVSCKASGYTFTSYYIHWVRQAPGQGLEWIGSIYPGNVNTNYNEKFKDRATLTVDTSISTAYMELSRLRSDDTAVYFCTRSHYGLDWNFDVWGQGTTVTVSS
Sequence (VL, as listed by the source, chain 2 of 2): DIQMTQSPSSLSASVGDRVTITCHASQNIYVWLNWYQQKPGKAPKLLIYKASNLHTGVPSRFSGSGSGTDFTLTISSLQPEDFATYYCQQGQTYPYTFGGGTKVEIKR
Experiment: phage binding ELISA; biotinylated anti-CD28 Fab captured on neutravidin plate, clonal phage supernatant, anti-M13 HRP detection
Where no end group is shown, it is not given here.
Response field accepts a number only; no unit should be typed.

Below, 5 binders whose answers are already recorded.
YCAGHLPQYMAKCL (peptide, not shown: large carriers, Clonal phage supernatant of the Peptide-87 optimisation library) [Phage-508] :: 2.41
YCDGHLPQYMEKCL (peptide, not shown: large carriers, Clonal phage supernatant of the Peptide-87 optimisation library) [Phage-500] :: 2.47
YCDGHLPEYMEKCL (peptide, not shown: large carriers, Clonal phage supernatant of the Peptide-87 optimisation library) [Phage-503] :: 2.44
YCDGHSAEHMAKCL (peptide, not shown: large carriers, Clonal phage supernatant of the Peptide-87 optimisation library) [Phage-507] :: 2.41
YCDGHSPEYMWKCL (peptide, not shown: large carriers, Clonal phage supernatant of the Peptide-87 optimisation library) [Phage-502] :: 2.44

Q: Fill in the blank: the reported Anti-CD28 Fab signal (phage binding ELISA) of YCEGHLPEYMAKCL (peptide, not shown: large carriers, cysteine pairing not given here; also: displayed on phage as fusion to pIII, linker, pIII sequence and order not given here, Clonal phage supernatant of the Peptide-87 optimisation library) [Phage-509] is ____.
Ans: 2.41

Q: Cool, now YCAGHLPEYMDKCL (peptide, not shown: large carriers, Clonal phage supernatant of the Peptide-87 optimisation library) [Phage-506]
Ans: 2.42
